Below: a set of entries, each annotated with reported pIC50.
- tested.target: E. coli H6-DXR (Escherichia coli)
- Construct: His6 (H6)
- Sequence (P45568 whole entry): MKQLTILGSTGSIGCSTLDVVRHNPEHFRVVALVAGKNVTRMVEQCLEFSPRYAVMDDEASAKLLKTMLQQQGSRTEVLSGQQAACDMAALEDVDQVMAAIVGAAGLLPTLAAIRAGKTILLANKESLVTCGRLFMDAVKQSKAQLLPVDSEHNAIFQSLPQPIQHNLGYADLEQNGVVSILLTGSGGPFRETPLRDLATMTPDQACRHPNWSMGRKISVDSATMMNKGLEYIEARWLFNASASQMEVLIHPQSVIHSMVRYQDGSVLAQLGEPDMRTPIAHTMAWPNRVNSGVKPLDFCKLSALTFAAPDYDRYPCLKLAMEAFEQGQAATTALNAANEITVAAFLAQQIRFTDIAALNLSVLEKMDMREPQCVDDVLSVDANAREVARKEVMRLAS
- procedure.details: Inhibition of E. coli His-tagged DXR (photometric NADPH assay)
- Assay type: biochemical
pIC50: −log10 of the molar value.
assay.endpoint: pIC50

{"columns": ["compound", "tested.target", "value"],
 "data": [
  ["O=C(CCC(F)(F)P(=O)(O)O)NO [Compound 10a]", "E. coli H6-DXR (Escherichia coli)", 5.34],
  ["CC(=O)N(O)CCCP(=O)(O)O", "E. coli H6-DXR (Escherichia coli)", 8.40],
  ["CC(=O)N(O)CCC(F)(F)P(=O)(O)O", "E. coli H6-DXR (Escherichia coli)", 8.05],
  ["CN(O)C(=O)CCC(F)(F)P(=O)(O)O [Compound 10b]", "E. coli H6-DXR (Escherichia coli)", 7.77]
]}
